TARGET_OF_ASSAY: NLRP3 inflammasome (Homo sapiens)
Construct: IL-1beta HTRF
Sequence (Q96P20 whole entry): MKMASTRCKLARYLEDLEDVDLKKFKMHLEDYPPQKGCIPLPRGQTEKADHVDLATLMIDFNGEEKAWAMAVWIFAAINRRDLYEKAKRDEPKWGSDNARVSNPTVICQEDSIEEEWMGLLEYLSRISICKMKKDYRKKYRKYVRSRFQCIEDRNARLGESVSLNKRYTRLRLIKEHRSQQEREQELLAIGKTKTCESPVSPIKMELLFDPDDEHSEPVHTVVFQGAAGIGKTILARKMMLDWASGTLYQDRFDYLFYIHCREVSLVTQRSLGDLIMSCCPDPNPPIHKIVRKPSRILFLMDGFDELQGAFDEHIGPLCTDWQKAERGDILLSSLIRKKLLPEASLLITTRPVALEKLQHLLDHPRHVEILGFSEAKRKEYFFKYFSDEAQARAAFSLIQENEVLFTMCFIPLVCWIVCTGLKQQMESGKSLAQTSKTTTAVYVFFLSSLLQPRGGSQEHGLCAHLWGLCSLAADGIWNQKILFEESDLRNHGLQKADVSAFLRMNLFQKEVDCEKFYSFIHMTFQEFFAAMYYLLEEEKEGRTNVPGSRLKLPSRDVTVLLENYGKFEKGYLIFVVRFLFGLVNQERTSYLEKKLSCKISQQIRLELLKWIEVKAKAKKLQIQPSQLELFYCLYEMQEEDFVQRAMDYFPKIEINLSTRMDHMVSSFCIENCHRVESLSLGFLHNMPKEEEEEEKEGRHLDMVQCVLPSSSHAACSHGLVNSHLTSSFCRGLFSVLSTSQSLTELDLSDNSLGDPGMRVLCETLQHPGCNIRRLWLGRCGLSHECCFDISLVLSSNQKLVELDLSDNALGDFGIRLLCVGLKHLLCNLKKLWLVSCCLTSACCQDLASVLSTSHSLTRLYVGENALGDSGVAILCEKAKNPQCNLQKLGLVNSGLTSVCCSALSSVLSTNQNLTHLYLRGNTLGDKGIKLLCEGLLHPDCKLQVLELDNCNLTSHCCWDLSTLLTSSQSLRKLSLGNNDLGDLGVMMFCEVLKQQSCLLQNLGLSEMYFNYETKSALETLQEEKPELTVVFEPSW
TEST_DETAILS: IL-1β TR-FRET assay (THP-1 cells differentiated to macrophages with IFN-γ, LPS primed, ATP activated; HTRF)
EXPERIMENTAL_CONTEXT: THP-1 macrophages, 50 ng/mL LPS priming, compound 30 min, 20 mM ATP 2 hours
pIC50: −log10 of the molar value.
EXPERIMENTAL_ENDPOINT: pIC50

- CNC(=O)N1CCCC(Nc2nc3nn(-c4c(C)cc(C)cc4O)cc3s2)C1 (stereo not shown): 6.09
- Cc1cc(C)c(-n2cc3sc(N[C@@H]4CCCC[C@H]4O)nc3n2)c(O)c1: 6.35
- Oc1cc(F)cc(Cl)c1-n1cc2sc(N[C@@H]3CCCN(C4CC4)C3)nc2n1: 7.96
- CCc1cc(O)c(-n2cc3sc(N[C@@H]4C[C@@H](F)CN(C)C4)nc3n2)c(CC)c1: 7.64
- Cc1cc(C)c(-n2cc3sc(N[C@H]4C[C@](C)(O)C4)nc3n2)c(O)c1: 6.17
- Cc1cc(C)c(-n2cc3sc(N[C@@H]4CCCN(C)C4)nc3n2)c(O)c1: 8.44
- Cc1cc(C)c(-n2cc3sc(NC4CCN(CC(F)F)CC4)nc3n2)c(O)c1: 5.64
- Cc1cc(O)c(-n2cc3sc(N[C@@H]4C[C@@H](F)CN(C)C4)nc3n2)c(C2CC2(F)F)c1 (single isomer, unassigned) [Example 126]: 8.42
- Cc1cc(C)c(-n2cc3sc(N[C@H]4COC[C@@H]4F)nc3n2)c(O)c1 (single isomer, unassigned) [Example 142]: 6.26
- Cc1cc(C)c(-n2cc3sc(N[C@@H]4COCC[C@H]4O)nc3n2)c(O)c1: 5.74

1: Cc1cc(C)c(-n2cc3sc(N[C@H]4C[C@@H](F)CN(C)C4)nc3n2)c(O)c1
2: Cc1cc(C)c(-n2cc3sc(NC4CCCN(S(C)(=O)=O)C4)nc3n2)c(O)c1 (stereo not shown)
3: Cc1cc(C)c(-n2cc3sc(NCCC(C)(C)O)nc3n2)c(O)c1
4: Cc1cc(O)c(-n2cc3sc(NC45CCC(O)(CC4)C5)nc3n2)c(C2CC2(F)F)c1 (stereo not shown)
5: Cc1cc(C)c(-n2cc3sc(N[C@@H]4CC[C@H](O)C4)nc3n2)c(O)c1 [Example 46]
Prompt: Could you please order the items by pIC50, going from the lowest number to the highest? Reply with the labels, ordered as the question asks.
Completion: 1, 3, 2, 5, 4
(1: 5.08, 3: 5.85, 2: 6.26, 5: 6.48, 4: 7.18)
